Hi there, I'd appreciate the recorded binding signal for every entry that follows.
- system-under-test: GST-VND3 NAC domain (Arabidopsis thaliana, UniProt Q9FH59 12-162)
- Sequence: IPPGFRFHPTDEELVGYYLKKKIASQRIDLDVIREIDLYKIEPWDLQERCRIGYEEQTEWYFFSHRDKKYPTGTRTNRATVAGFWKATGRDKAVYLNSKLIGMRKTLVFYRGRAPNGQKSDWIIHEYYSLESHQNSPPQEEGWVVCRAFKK
- assay-remarks: universal protein binding microarray (PBM); transcription factors of Arabidopsis thaliana; high values mean tight binding
- protocol-conditions: protein: recombinant; tags: GST; chain copies: 2; dsDNA, one strand shown
Give bare numbers, in E-score.

Worked examples, 4 sequences total:
GTCAACAC; 0.133
ACGTTTCC; 0.347
GTACGTCA; 0.38
ATTTCTTA; 0.0914

Could you now consider this next sequence?
Documented binding signal of AATAGTCA : 0.178
